- Tested on: NCI-H226 lung
- TEST: NCI tumour cell line growth inhibition, 48 h
Where a SMILES comes first, the peptide text is derived from it. [ ]: non-standard residue; d: D form. The star is where a group is joined. Ac5c = NC1(C(=O)O)CCCC1; Boc = CC(C)(C)OC(=O)*; tBu = CC(C)(C)*
# reported TGI; entries follow

Known TGI results, listed for orientation:
- COMPOUND: "CC(OC(C)(C)C)C(NC(=O)C(CCCCNC(=O)OC(C)(C)C)NC(=O)C(Cc1c[nH]c2ccccc12)NC(=O)C(N)Cc1ccccc1)C(=O)NC(Cc1ccccc1)C(=O)NC1(C(=O)O)CCCC1 (stereo not given) (H-FWK(Boc)T(tBu)F[Ac5c]-OH; configuration not given here)"
  TGI: "> 100 µM"
- COMPOUND: "CCCCC[C@H]1CC=CC(=O)O1"
  TGI: "23.9 µM"
- COMPOUND: "CCOP(=O)(OCC)OC1CC(n2cnc3c(N(CC)CC)ncnc32)OC1CO[Si](C)(C)C(C)(C)C (stereo not given)"
  TGI: "39.3 µM"
- COMPOUND: "NC1=NC(=O)[C@H](CSCc2ccccc2)N1C(=O)OCc1ccccc1"
  TGI: "> 100 µM"
- COMPOUND: "CN(C)c1ccc(N=C(C#N)c2nc(N)nc(N3CCOCC3)n2)cc1"
  TGI: "> 100 µM"
- COMPOUND: "COc1cc(-c2cn(-c3ccc(Cl)cc3)c(=O)n2-c2ccccc2)cc(OC)c1OC"
  TGI: "> 100 µM"
- COMPOUND: "O=C1c2ccccc2-c2ccc(N(Cc3ccc(Br)cc3)Cc3ccc(Br)cc3)cc21"
  TGI: "> 100 µM"
- COMPOUND: "Cc1ccc(NC(=O)c2cc(S(=O)(=O)N3CCNNC3=O)c(S)cc2Cl)cc1"
  TGI: "> 100 µM"

**Q:** I would be grateful if you could share the reported TGI for COc1ccc(-c2c(C(=O)Nc3ccccc3)c(-c3ccccc3)n(C3OC(CO)C(O)C(O)C3O)c(=S)c2C#N)cc1 (stereo not given) .
**A:** > 100 µM

**Q:** # repeat for O=C1C2=Cc3ccccc3CCN2c2ccc([N+](=O)[O-])cc21
**A:** > 100 µM

**Q:** # repeat for CC1(C)O[C@@H]([C@@H](O)[C@H](O)C2SCCCS2)[C@@H](CO)O1
**A:** > 100 µM

**Q:** # repeat for c1ccc(NC2(c3nnnn3C3CCCCC3)CCNCC2)cc1
**A:** 62.3 µM

**Q:** # repeat for CCC/C(Cl)=N/OC(=O)Nc1cccc(F)c1
**A:** 27.9 µM

**Q:** # repeat for OCCC#Cc1ccccc1C#Cc1ccccc1
**A:** 33.2 µM

**Q:** # repeat for Nc1nc(Cl)c(N)c(NCC2(CO)CC(O)C2)n1 (stereo not given)
**A:** > 100 µM

**Q:** # repeat for CCOC(=O)CC(=O)Nc1c(C(=O)OCC)sc2nc(SC)nc(Nc3ccc(OC)c(OC)c3)c12
**A:** > 100 µM

---

- Tested on: A498 renal
- TEST: NCI tumour cell line growth inhibition, 48 h
MEASURED_ATTRIBUTE: TGI

- COMPOUND: "Nc1cccc2cc(S(=O)(=O)Nc3ccc(C(=O)O)cc3)ccc12"
  TGI: "> 100 µM"
- COMPOUND: "Cc1ccc(C)c(NC(=O)CCC(=O)CC(=O)C(C)(C)C)c1"
  TGI: "> 100 µM"
- COMPOUND: "CCOC(=O)c1c(-c2ccccc2)[nH]c2ccccc2c1=O"
  TGI: "> 100 µM"
- COMPOUND: "COC12c3ccccc3-c3ccccc3C1[C@@H](C(=O)O)[C@H]2C(=O)O (stereo partly specified)"
  TGI: "> 10 µM"

**Q:** I would be grateful if you could share the reported TGI for Cn1cc(-c2nonc2-c2cn(C)c3ccc(Br)cc23)c2ccccc21 .
**A:** > 100 µM

**Q:** # repeat for COc1cc(-c2c(C(C)=O)c(-c3ccccc3)n(C3OC(COC(C)=O)C(OC(C)=O)C(OC(C)=O)C3OC(C)=O)c(=S)c2C#N)ccc1O (stereo unspecified)
**A:** > 100 µM

**Q:** # repeat for Cc1c(O)c(OC2OC(CO)C(O)C(O)C2O)cc2c1CC[C@@H]1C2(C)C(=O)C[C@]2(C)[C@@H]([C@@](C)(O)C(O)CCC(C)(C)O)[C@H](O)C[C@@]12C (stereo partly specified)
**A:** > 100 µM

---

- Tested on: CCRF-CEM leukemia
- TEST: NCI tumour cell line growth inhibition, 48 h
# reported TGI; entries follow

- ENTRY_SMILES: "Nc1cc2c3c(cccc3c1)C(=O)N(CCN1CCN(CCN3C(=O)c4cccc5cc(N)cc(c45)C3=O)CC1)C2=O"
  TGI: "> 100 µM"
- ENTRY_SMILES: "Nc1nc(SCC(=O)c2ccccc2)nc2nc3c(c(-c4ccccc4)c12)CCCC3"
  TGI: "> 100 µM"
- ENTRY_SMILES: "CCN=C(N)CSS(=O)(=O)O"
  TGI: "> 100 µM"
- ENTRY_SMILES: "Cn1cc(-c2csc(-c3cn(C)c4ncccc34)n2)c2ccccc21"
  TGI: "> 61.6 µM"
- ENTRY_SMILES: "CCOC(=O)CC(=O)Nc1c(C(=O)OCC)sc2nc(SC)nc(Nc3ccc(OC)c(OC)c3)c12"
  TGI: "> 100 µM"

Could you now look at the following compound, please?
**Q:** # query: TGI | item COC(=O)/C=C1/OC(c2ccccc2)=CC1=O | system: CCRF-CEM leukemia
**A:** > 61.2 µM

---

- Test system: HS 578T breast
- TEST: NCI tumour cell line growth inhibition, 48 h
# reported TGI; entries follow

**Q:** I would be grateful if you could share the reported TGI for O=C(CN1c2ccccc2Sc2ccccc21)n1cnc2ccccc21 .
**A:** > 100 µM

**Q:** # repeat for NCCCNCCCNc1nc2ccccc2c2[nH]c3ccccc3c12
**A:** 1.54 µM

**Q:** # repeat for O=C(Nc1ccc(-n2cc(-c3ccncc3)c(-c3ccc(O)c(Cl)c3)n2)cc1)c1ccc(Cl)c(Cl)c1
**A:** > 32.5 µM

**Q:** # repeat for COc1cc2c(c(Br)c1N)-c1cc(Br)c(N)cc1C2=O
**A:** > 100 µM

**Q:** # repeat for COc1ccc(C(c2ccccc2)N2C(=O)CCC2C(=O)O)cc1OC (stereo not drawn)
**A:** > 100 µM

**Q:** # repeat for Nc1nc(Cl)cc(NCC2(CO)CC(O)C2)n1 (stereo not drawn)
**A:** > 100 µM

**Q:** # repeat for O=C1C2=Cc3ccccc3CCN2c2ccc([N+](=O)[O-])cc21
**A:** > 100 µM

**Q:** # repeat for [N-]=[N+]=NC1=C(N=[N+]=[N-])c2cccc3cccc(c23)C1=O
**A:** > 100 µM

---

- Tested on: MCF7 breast
- TEST: NCI tumour cell line growth inhibition, 48 h
MEASURED_ATTRIBUTE: TGI

Known TGI results, listed for orientation:
- COMPOUND: "NCCCNCCCNc1nc2ccccc2c2[nH]c3ccccc3c12"
  MEASURED_ATTRIBUTE: "TGI"
  REPORTED: "1.85 µM"
- COMPOUND: "COc1cc2c(c(Br)c1N)-c1cc(Br)c(N)cc1C2=O"
  MEASURED_ATTRIBUTE: "TGI"
  REPORTED: "> 100 µM"
- COMPOUND: "CC(=O)/C(=C\\n1c(=S)[nH]c2ccc([N+](=O)[O-])cc21)C(=O)Nc1ccccc1C"
  MEASURED_ATTRIBUTE: "TGI"
  REPORTED: "> 100 µM"
- COMPOUND: "C[N+](C)(C)C(Cc1c[nH]c(=S)[nH]1)C(=O)O (stereo not given)"
  MEASURED_ATTRIBUTE: "TGI"
  REPORTED: "> 100 µM"
- COMPOUND: "OCCC#Cc1ccccc1C#Cc1ccccc1"
  MEASURED_ATTRIBUTE: "TGI"
  REPORTED: "46.5 µM"
- COMPOUND: "CC(=O)C(CN1CCOCC1)C(c1ccccc1)c1c(O)c2ccccc2oc1=O (stereo not given)"
  MEASURED_ATTRIBUTE: "TGI"
  REPORTED: "> 100 µM"
- COMPOUND: "N#Cc1c(-c2ccccc2)cc(Nc2ccc(F)cc2)n2c1nc1ccccc12"
  MEASURED_ATTRIBUTE: "TGI"
  REPORTED: "5.97 µM"
- COMPOUND: "CC1(C)OCC(C2OC(On3nnc4ccc(Cl)cc43)C3OC(C)(C)OC23)O1 (stereo not given)"
  MEASURED_ATTRIBUTE: "TGI"
  REPORTED: "> 100 µM"

**Q:** I would be grateful if you could share the reported TGI for CCOC(=O)/C(=C/c1c(-c2ccccc2)[nH]c2ccccc12)C(=O)c1ccc(Cl)cc1 .
**A:** > 100 µM

**Q:** # repeat for CN(N=O)C(N)=NC(=O)c1ccccc1
**A:** > 100 µM
